Biological target: GATAe (Drosophila melanogaster, UniProt Q9VF00 512-604)
Sequence: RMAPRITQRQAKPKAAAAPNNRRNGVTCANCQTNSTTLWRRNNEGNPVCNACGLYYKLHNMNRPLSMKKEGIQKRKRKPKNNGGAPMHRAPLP
Assay: FP; 33 mM phosphate pH 7.0, 90 mM NaCl, 0.01% Tween 20, 0.1 mM DTT, 0.5% agarose; room temperature
Settings: tags: N-GST (pGEX-6P-1, kept); dsDNA, one strand shown
assay endpoint: binding signal

{"seq": "CATGTTAACTAC", "binding signal": "9.8 Kd / Kd of best base at the position"}

Continue with the next sequence.
Value lookup for binding signal; key = CATGTTATCGAC 2.3 Kd / Kd of best base at the position

----------
Molecular target: Kni (Drosophila melanogaster, UniProt P10734 2-102)
Sequence: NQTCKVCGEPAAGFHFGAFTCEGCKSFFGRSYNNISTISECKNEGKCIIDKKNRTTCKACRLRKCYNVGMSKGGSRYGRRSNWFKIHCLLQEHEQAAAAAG
Experiment: FP; 33 mM phosphate pH 7.0, 90 mM NaCl, 0.01% Tween 20, 0.1 mM DTT, 0.5% agarose; room temperature
Conditions: tags: N-GST (pGEX-6P-1, kept); dsDNA, one strand shown
In this section, each of the sequences is paired with its reported binding signal.

Illustrative cases are given below, each with its answer.
{"seq": "CAAAACTAGACCACT", "binding signal": "3.9 Kd / Kd of best base at the position"}
{"seq": "CAAAACTAGAGGACT", "binding signal": "36 Kd / Kd of best base at the position"}

# next sequence below
# input sequence: CACAACTAGAGCACT ; wanted: its binding signal 2.2 Kd / Kd of best base at the position

----------
Readings of binding signal for the listed sequences
Target: Gt (Drosophila melanogaster, UniProt P39572 369-448)
Sequence: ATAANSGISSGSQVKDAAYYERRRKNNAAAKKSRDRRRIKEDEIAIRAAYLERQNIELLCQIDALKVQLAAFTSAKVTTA
Assay: FP; 33 mM phosphate pH 7.0, 90 mM NaCl, 0.01% Tween 20, 0.1 mM DTT, 0.5% agarose; room temperature
Conditions: tags: N-GST (pGEX-6P-1, kept); chain copies: 2; dsDNA, one strand shown

{"seq": "ATTACGGAACC", "experimental system": "Gt (Drosophila melanogaster, UniProt P39572 369-448)", "assay endpoint": "binding signal", "endpoint value": "460 Kd / Kd of best base at the position"}
{"seq": "ATTACGAAACC", "experimental system": "Gt (Drosophila melanogaster, UniProt P39572 369-448)", "assay endpoint": "binding signal", "endpoint value": "316 Kd / Kd of best base at the position"}
{"seq": "ACTACGTAACC", "experimental system": "Gt (Drosophila melanogaster, UniProt P39572 369-448)", "assay endpoint": "binding signal", "endpoint value": "121 Kd / Kd of best base at the position"}

Would you kindly look at the next entry?
For the record ATAACGTAACC , what value of binding signal is listed for Gt (Drosophila melanogaster, UniProt P39572 369-448)? 174 Kd / Kd of best base at the position

----------
Recorded binding signal values for a group of sequences are listed next.
Target: Croc (Drosophila melanogaster, UniProt P32027 54-175)
Sequence: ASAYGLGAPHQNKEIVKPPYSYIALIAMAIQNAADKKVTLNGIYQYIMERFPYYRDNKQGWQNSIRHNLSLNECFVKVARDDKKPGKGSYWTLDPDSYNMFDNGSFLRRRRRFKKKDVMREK
Assay: FP; 20 mM Tris-acetate pH 7.0, 50 "nM" NaCl as printed (probably mM), 0.01% Tween 20, 0.1 mM DTT; conventional titration
Conditions: tags: N-GST (pGEX-6P-1, kept); dsDNA, one strand shown

{"seq": "TTAGATAAATCTA", "assay endpoint": "binding signal", "endpoint value": "46 Kd / Kd of best base at the position"}
{"seq": "TTAGATAAAAATA", "assay endpoint": "binding signal", "endpoint value": "380 Kd / Kd of best base at the position"}

Fill blank: measured binding signal of the sequence TTAGATAATTATA is ____. 197 Kd / Kd of best base at the position

Would you mind doing TTAGATAAGTATA as well? 95 Kd / Kd of best base at the position

----------
Target: Ems (Drosophila melanogaster, UniProt P18488 373-462)
Sequence: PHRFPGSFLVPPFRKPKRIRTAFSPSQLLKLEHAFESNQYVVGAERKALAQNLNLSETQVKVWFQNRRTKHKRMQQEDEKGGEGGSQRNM
Assay: FP; 33 mM phosphate pH 7.0, 90 mM NaCl, 0.01% Tween 20, 0.1 mM DTT, 0.5% agarose; room temperature
Settings: tags: N-GST (pGEX-6P-1, kept); dsDNA, one strand shown
Listing: binding signal of selected sequences

{"seq": "CACGCAATTAGCTCA", "assay endpoint": "binding signal", "endpoint value": "2.2 Kd / Kd of best base at the position"}

# query: binding signal of entry CACGTAATTAGGTCA 7.3 Kd / Kd of best base at the position

----------
Target: Ems (Drosophila melanogaster, UniProt P18488 373-462)
Sequence: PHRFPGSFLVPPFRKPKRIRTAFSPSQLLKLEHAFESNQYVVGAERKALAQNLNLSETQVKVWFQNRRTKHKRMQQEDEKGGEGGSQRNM
Assay: FP; 33 mM phosphate pH 7.0, 90 mM NaCl, 0.01% Tween 20, 0.1 mM DTT, 0.5% agarose; room temperature
Conditions: tags: N-GST (pGEX-6P-1, kept); dsDNA, one strand shown
pKd: −log10 of the molar value.
assay endpoint: pKd

What value of pKd has been reported for the following sequence? CACGTAATTAGCTCA ~8.77

----------
Target: Br (Drosophila melanogaster, UniProt Q24206 697-775)
Sequence: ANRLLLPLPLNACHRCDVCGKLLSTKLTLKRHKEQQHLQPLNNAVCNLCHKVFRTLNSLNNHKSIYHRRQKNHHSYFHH
Test: FP; 33 mM phosphate pH 7.0, 90 mM NaCl, 0.01% Tween 20, 0.1 mM DTT, 0.5% agarose; room temperature
Conditions: tags: N-GST (pGEX-6P-1, kept); dsDNA, one strand shown
assay endpoint: binding signal

{"seq": "GGAACTAGAAAAC", "endpoint value": "4.4 Kd / Kd of best base at the position"}

Consider now this further sequence.
Quick check: binding signal of GGAATTACAAAAC ? 109 Kd / Kd of best base at the position

----------
Molecular target: EcR (Drosophila melanogaster, UniProt P34021 251-348)
Sequence: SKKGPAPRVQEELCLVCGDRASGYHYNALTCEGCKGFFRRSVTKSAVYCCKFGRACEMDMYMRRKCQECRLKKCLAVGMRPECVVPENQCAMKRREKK
Assay: FP; 33 mM phosphate pH 7.0, 90 mM NaCl, 0.01% Tween 20, 0.1 mM DTT, 0.5% agarose; room temperature
Conditions: tags: N-GST (pGEX-6P-1, kept); dsDNA, one strand shown
assay endpoint: Kd

Param item = GAATGACCCCTAC ; retrieve measured Kd. ~23.7 nM

----------
Biological target: Cic (Drosophila melanogaster, UniProt Q9U1H0 483-565)
Assay: FP; 33 mM phosphate pH 7.0, 90 mM NaCl, 0.01% Tween 20, 0.1 mM DTT, 0.5% agarose; room temperature
Details: tags: N-GST (pGEX-6P-1, kept); dsDNA, one strand shown
assay endpoint: binding signal

{"seq": "CGTTGAATGGCGT", "binding signal": "2 Kd / Kd of best base at the position"}

Then this sequence:
Sample CGTTGAATGAGGT — what was its binding signal? 2.2 Kd / Kd of best base at the position

----------
Molecular target: Croc (Drosophila melanogaster, UniProt P32027 54-175)
Sequence: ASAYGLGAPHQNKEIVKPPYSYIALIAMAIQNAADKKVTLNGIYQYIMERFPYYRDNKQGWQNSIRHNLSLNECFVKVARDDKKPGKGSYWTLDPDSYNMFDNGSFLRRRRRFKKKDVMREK
Assay: FP; 20 mM Tris-acetate pH 7.0, 50 "nM" NaCl as printed (probably mM), 0.01% Tween 20, 0.1 mM DTT; conventional titration
Conditions: tags: N-GST (pGEX-6P-1, kept); dsDNA, one strand shown
assay endpoint: Kd

So what Kd did TTAGATAAATATA get with Croc (Drosophila melanogaster, UniProt P32027 54-175)? ~0.3 nM

----------
Target: Cad (Drosophila melanogaster, UniProt P09085 273-344)
Sequence: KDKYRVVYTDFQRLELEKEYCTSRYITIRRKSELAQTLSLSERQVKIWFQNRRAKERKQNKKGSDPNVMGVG
Assay: FP; 20 mM Tris-acetate pH 7.0, 50 "nM" NaCl as printed (probably mM), 0.01% Tween 20, 0.1 mM DTT; conventional titration
Settings: tags: N-GST (pGEX-6P-1, kept); dsDNA, one strand shown
pKd: −log10 of the molar value.
assay endpoint: pKd

Quick check: pKd on Cad (Drosophila melanogaster, UniProt P09085 273-344), item CACTTTTTATA ? ~10.30
